Cited source: patent US20110135636A1

# target or test system: T1, recombinant human EGFR extracellular domain with 6xHis (human, UniProt P00533 25-645)
# T1 construct: In-house produced; also called 6xHis EGFR ECD; soluble human EGFR ECD; not shown: 6xHis tag
# assay overview: SPR competition, competitor 1284
# Protocol: SPR analysis was performed on a Biacore 3000 machine containing four flow cells. A CM5 Biacore chip was conjugated with 10,000 Resonance units (Ru) polyclonal anti-His antibody to flow cells 1-4 according to the manufacturer's instructions. […] Immediately after antigen injection the maximal binding of the Anti-EGFR mAb without competition was established in each flow cell during a reference run. […]
quantity measured: % inhibition

binder	meas value
antibody 1260 (antibody, human IgG1, kappa, V domains shown, Chimeric IgG1 kappa) VH: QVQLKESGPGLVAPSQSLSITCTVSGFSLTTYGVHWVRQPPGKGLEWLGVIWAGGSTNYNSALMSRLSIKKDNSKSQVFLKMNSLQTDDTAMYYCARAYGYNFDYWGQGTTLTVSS VL: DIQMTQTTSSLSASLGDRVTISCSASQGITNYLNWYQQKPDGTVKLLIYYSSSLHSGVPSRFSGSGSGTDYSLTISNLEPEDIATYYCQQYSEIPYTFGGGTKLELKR	67%
antibody 1344 (antibody, human IgG1, kappa, V domains shown, Chimeric IgG1 kappa) VH: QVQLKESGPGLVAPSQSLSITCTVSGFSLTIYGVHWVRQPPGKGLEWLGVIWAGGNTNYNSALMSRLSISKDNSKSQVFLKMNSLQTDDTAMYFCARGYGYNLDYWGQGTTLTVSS VL: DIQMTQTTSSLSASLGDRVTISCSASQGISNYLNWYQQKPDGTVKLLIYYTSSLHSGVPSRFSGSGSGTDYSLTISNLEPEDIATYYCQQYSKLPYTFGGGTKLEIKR	81%
antibody 1261 (antibody, human IgG1, kappa, V domains shown, Chimeric IgG1 kappa) VH: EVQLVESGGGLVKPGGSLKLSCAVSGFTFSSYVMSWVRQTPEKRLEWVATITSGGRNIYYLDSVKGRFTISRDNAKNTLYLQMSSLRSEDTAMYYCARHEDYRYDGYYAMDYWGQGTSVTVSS VL: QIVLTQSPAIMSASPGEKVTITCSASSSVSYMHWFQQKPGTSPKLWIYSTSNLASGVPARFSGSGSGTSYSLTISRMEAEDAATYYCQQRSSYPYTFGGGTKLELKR	-8%
